FYI, the data here is from patent US5190741A.

# Test Protocol: Tissue distribution in C57 BL6 mice bearing B16
# Assay type: in vivo, mouse
# Condition Notes: mouse, lung, iv, 3 umol/animal, 8 h; read-out: lungs % ID/g
Experimental Readout: tissue uptake at 8 h (%ID/g)
Write the number in %ID/g without appending the unit.

Enquiry: // query tissue uptake at 8 h value for entry CCN(CC)CCNC(=O)c1ccc(I)cc1 [Derivative A, N-(2-diethylaminoethyl) 4-iodo benzamide]
Return: 1.11

###

# Test Protocol: Tissue distribution in C57 BL6 mice bearing B16
# Type: in vivo, mouse
# Condition Notes: mouse, plasma, iv, 3 umol/animal; 12 h; read-out: plasma % ID/g
Experimental Readout: tissue uptake at 12 h (%ID/g)
Please respond with the number in %ID/g and leave the unit unwritten.

Enquiry: # get_value(readout='tissue uptake at 12 h', item= CCN(CC)CCNC(=O)c1ccc(I)cc1 [Derivative A, N-(2-diethylaminoethyl) 4-iodo benzamide] )
Return: 0.11

###

# Lookup of reported tissue uptake at 8 h keyed by entry
# Test Protocol: Tissue distribution in Swiss nu/nu SSCUP mice bearing Dau
# Format: in vivo, human
# Condition Notes: mouse, eye, iv, 3 umol/animal; 8 h; read-out: eye % ID/g

| Compound | tissue uptake at 8 h |
| --- | --- |
| CCNCCNC(=O)c1ccc(I)cc1 [Derivative B, N-(2-ethylaminoethyl) 4-iodo benzamide] | 0.06 %ID/g |

Now take the following compound into account.
Enquiry: Which tissue uptake at 8 h is reported for this compound? CCN(CC)CCNC(=O)c1ccc(I)cc1 [Derivative A, N-(2-diethylaminoethyl) 4-iodo benzamide]
Return: 0.1 %ID/g

###

# Test Protocol: Tissue distribution in C57 BL6 mice bearing B16
# Assay type: in vivo, mouse
# Condition Notes: mouse, intestine, iv, 3 umol/animal; 24 h; read-out: intestine % ID/g
Experimental Readout: tissue uptake at 24 h

Enquiry: Given the entry CCN(CC)CCNC(=O)c1ccc(I)cc1 [Derivative A, N-(2-diethylaminoethyl) 4-iodo benzamide] , report its measured tissue uptake at 24 h.
Return: 0.02 %ID/g

###

# Test Protocol: Tissue distribution in Swiss nu/nu SSCUP mice bearing Beu
# Assay type: in vivo, human
# Condition Notes: mouse, submaxillary glands, iv, 3 umol/animal; 4 h; read-out: submaxillary glands % ID/g
Experimental Readout: tissue uptake at 4 h (%ID/g)
# output: bare number, implied unit %ID/g

Enquiry: Return reported tissue uptake at 4 h; argument: CCN(CC)CCNC(=O)c1ccc(I)cc1 [Derivative A, N-(2-diethylaminoethyl) 4-iodo benzamide]
Return: 1.71

###

# Test Protocol: Tissue distribution in Swiss nu/nu SSCUP mice bearing Dau
# Format: in vivo, human
# Condition Notes: mouse, tumor, iv, 3 umol/animal; 12 h; read-out: tumor % ID/g
# Description: The study of the tissue distribution of the ^125 I labelled compounds was performed in mice bearing grafted melanomas (cf. autoradiograms above). […] The animals are sacrificed at different time intervals of 1 to 24 hours after the injection. The blood is collected and the principal organs are excised. Aliquots are weighed and the radioactivity of the samples is measured in a […] 1191 counter (analytic tracer). The counting yield for iodine 125 is 60%. […]
Catalogue of tissue uptake at 12 h values
I only need the number, in %ID/g, no unit after it.

| Molecule | Readout Units | Observed Result |
| --- | --- | --- |
| CCN(CC)CCNC(=O)c1ccc(I)cc1 [Derivative A, N-(2-diethylaminoethyl) 4-iodo benzamide] | %ID/g | 0.07 |

Enquiry: # input molecule: CCNCCNC(=O)c1ccc(I)cc1 [Derivative B, N-(2-ethylaminoethyl) 4-iodo benzamide] ; wanted: its tissue uptake at 12 h
Return: 0.02
